test system: LoVo; test: Growth inhibition of human LoVo cells after 48 hrs by MTT assay; format: functional, cell-based
pIC50: −log10 of the molar value.
Everything with pIC50 lower than 8 is not met; everything else, including exactly 8, is met.

Solved entries (count: 2):
1. COc1ccc(N(C)c2nc(C)nc3ccccc23)cc1C(=O)OCCCC[Se]C#N = not met
2. COc1ccc(N(C)c2nc(C)nc3ccccc23)cc1C(=O)OCCCCCC[Se]C#N = not met

Enquiry: Decide: is the reported value of pIC50 for `COc1ccc(N(C)c2nc(C)nc3ccccc23)cc1OCCCCCC[Se]C#N` equal to or greater than 8?
Return: not met

Enquiry: Again, but for `COc1ccc(N(C)c2nc(C)nc3ccccc23)cc1C(=O)OCCCCC[Se]C#N`
Return: not met
